Origin of the recorded values: patent US8604046B2

Measured Inverse Agonism: % inhibition of Basal GTPγS binding in Rhesus H3, listed per entry for reference.
Target: rhesus H3 receptor (Macaca mulatta, UniProt Q865E1)
Sequence (Q865E1 1-445): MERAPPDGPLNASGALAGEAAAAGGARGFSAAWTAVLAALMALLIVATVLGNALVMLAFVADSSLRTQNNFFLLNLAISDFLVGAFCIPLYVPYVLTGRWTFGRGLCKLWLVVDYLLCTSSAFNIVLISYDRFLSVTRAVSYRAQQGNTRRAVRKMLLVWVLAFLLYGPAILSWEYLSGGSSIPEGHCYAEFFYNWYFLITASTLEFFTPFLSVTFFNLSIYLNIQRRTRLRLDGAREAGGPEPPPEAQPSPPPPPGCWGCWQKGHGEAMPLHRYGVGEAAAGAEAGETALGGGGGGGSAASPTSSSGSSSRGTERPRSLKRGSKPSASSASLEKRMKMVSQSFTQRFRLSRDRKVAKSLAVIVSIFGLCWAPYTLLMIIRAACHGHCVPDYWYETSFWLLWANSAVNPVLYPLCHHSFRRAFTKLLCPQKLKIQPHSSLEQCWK
Assay: GTPγS radioligand binding assay, inhibition of rhesus H3 constitutive functional activity (inverse agonism)
Format: biochemical, rhesus monkey (Macacca Mulatta)
Set-up: concentration or dose not given beside the values
Conditions: rhesus H3 cell membranes, relative to basal levels
Record the value in %, omitting the unit from your answer.

# annotated cases, reported Inverse Agonism: % inhibition of Basal GTPγS binding in Rhesus H3 shown
| COMPOUND | ASSAY RESULT |
| --- | --- |
| C[C@H]1CCCN1[C@H]1CCN(c2ccc(N3CCCC4(CCN(C5CCOCC5)CC4)C3=O)cc2)C1 | −18 |
| Cc1cc(N2CC[C@H](N3CCC[C@@H]3C)C2)ccc1N1CCC2(CCNCC2)C1=O | −22 |
| C[C@H]1CCCCN1[C@H]1CCN(c2ccc(N3CCC4(CCN(S(=O)(=O)c5ccc(F)cc5)CC4)C3=O)cc2)C1 | −13 |
| COCC(=O)N1CCC2(CC1)CCN(c1ccc(N3CC[C@H](N4CCC[C@@H]4C)C3)cc1C(F)(F)F)C2=O | −7 |

Exercise: Record request: Inverse Agonism: % inhibition of Basal GTPγS binding in Rhesus H3 value, item "Cc1cc(N2CC[C@H](N3CCC[C@@H]3C)C2)ccc1N1CCC2(CCN(CC3CCCC3)CC2)C1=O"
Key: −37

Exercise: Recorded Inverse Agonism: % inhibition of Basal GTPγS binding in Rhesus H3 of "Cc1cc(N2CC[C@@H](N3CCC[C@H]3C)C2)ccc1N1CCC2(CCN(CC3CCCC3)CC2)C1=O" , please.
Key: −29

Exercise: # query: Inverse Agonism: % inhibition of Basal GTPγS binding in Rhesus H3 of entry "C[C@H]1CCCCN1[C@H]1CCN(c2ccc(N3CCC4(CCN(C(=O)C5CCOCC5)CC4)C3=O)cc2)C1"
Key: −24

Exercise: Sample "Cc1cc(N2CC[C@H](N3CCC[C@@H]3C)C2)ccc1N1CCC2(CCN(C(=O)c3ccc(OC(F)(F)F)cc3)CC2)C1=O" — what was its Inverse Agonism: % inhibition of Basal GTPγS binding in Rhesus H3?
Key: −19

Exercise: If you can, please state the reported Inverse Agonism: % inhibition of Basal GTPγS binding in Rhesus H3 value of "C[C@H]1CCCN1[C@H]1CCN(c2ccc(N3CCC4(CCN(CC5CCOCC5)CC4)C3=O)c(C(F)(F)F)c2)C1" .
Key: −19

Exercise: Given "Cc1cc(N2CC[C@H](N3CCC[C@H]3C)C2)ccc1N1CCC2(CCN(C(=O)OC(C)(C)C)CC2)C1=O" , state its recorded Inverse Agonism: % inhibition of Basal GTPγS binding in Rhesus H3.
Key: −24

Exercise: GET /values?readout=Inverse Agonism: % inhibition of Basal GTPγS binding in Rhesus H3&item= Cc1cc(N2CCC(N3CCCC3C)C2)ccc1N1CCC2(CCN(CC3CCCC3)CC2)C1=O (stereo not drawn)
Key: −31

Exercise: Item under review: "Cc1cc(N2CC[C@H](N3CCC[C@@H]3C)C2)ccc1N1CCCC2(CCN(C(=O)OC(C)(C)C)CC2)C1=O" . Reported Inverse Agonism: % inhibition of Basal GTPγS binding in Rhesus H3?
Key: −18
